Origin of measurements: patent US20230233569A1

Target: KRAS G12S (Homo sapiens, UniProt P01116+P62937, G12S)
Sequence (P01116 1-169 isoform P01116-2 G12S limits assumed): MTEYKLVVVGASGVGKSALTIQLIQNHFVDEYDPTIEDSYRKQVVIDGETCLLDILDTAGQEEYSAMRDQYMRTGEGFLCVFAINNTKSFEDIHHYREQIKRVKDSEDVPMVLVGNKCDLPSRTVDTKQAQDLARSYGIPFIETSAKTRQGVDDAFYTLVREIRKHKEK
Sequence (P62937 whole entry): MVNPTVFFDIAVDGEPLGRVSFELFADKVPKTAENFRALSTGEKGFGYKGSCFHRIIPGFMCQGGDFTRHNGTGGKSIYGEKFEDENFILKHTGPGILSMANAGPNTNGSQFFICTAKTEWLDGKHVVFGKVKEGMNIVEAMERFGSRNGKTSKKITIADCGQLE
Experiment: Ras-Raf disruption / FRET / MOA assay (BRAF RBD)
Format: biochemical
Details: Ras-Raf disruption, with Cyclophilin A; read-out: KRAS G12S FRET data IC50
pIC50: −log10 of the molar value.
Reported pIC50 values for a set of compounds

| compound | pIC50 |
| --- | --- |
| CCn1c(-c2cccnc2[C@H](C)OC)c2c3cc(ccc31)-c1cc(O)cc(c1)C[C@H](NC(=O)[C@H](C(C)C)N(C)C(=O)C1CCN(S(=O)(=O)[C@H]3CN3C)CC1)C(=O)N1CCC[C@H](N1)C(=O)OCC(C)(C)C2 (single isomer, unassigned) | 6.00 to 7.00 |
| CCn1c(-c2cccnc2[C@H](C)OC)c2c3cc(ccc31)-c1cc(O)cc(c1)C[C@H](NC(=O)[C@H](C(C)C)N(C)C(=O)c1ccc(NC(=O)[C@H]3CN3)cn1)C(=O)N1CCC[C@H](N1)C(=O)OCC(C)(C)C2 | 7.00 to 8.00 |
| CCn1c(-c2cccnc2[C@H](C)OC)c2c3cc(ccc31)-c1cc(O)cc(c1)C[C@H](NC(=O)[C@H](C(C)C)N(C)C(=O)c1ccc([C@H]3CN3)cc1)C(=O)N1CCC[C@H](N1)C(=O)OCC(C)(C)C2 | 6.00 to 7.00 |

The compound CCn1c(-c2cccnc2[C@H](C)OC)c2c3cc(ccc31)-c1csc(n1)C[C@H](NC(=O)[C@H](C(C)C)N(C)C(=O)N1CCCN(C(=O)[C@H]3CN3)CC1)C(=O)N1CCC[C@H](N1)C(=O)OCC(C)(C)C2 (atropisomer, axis not shown) , when measured on KRAS G12S (Homo sapiens, UniProt P01116+P62937, G12S), yielded pIC50 of 7.00 to 8.00
